Property: hERG current change (%, negative = inhibition) at 10uM; scope: individual compounds
Molecular target: human ether-à-go-go-related gene (hERG) potassium channel (human, UniProt Q12809)
Sequence (Q12809 whole entry, looked up): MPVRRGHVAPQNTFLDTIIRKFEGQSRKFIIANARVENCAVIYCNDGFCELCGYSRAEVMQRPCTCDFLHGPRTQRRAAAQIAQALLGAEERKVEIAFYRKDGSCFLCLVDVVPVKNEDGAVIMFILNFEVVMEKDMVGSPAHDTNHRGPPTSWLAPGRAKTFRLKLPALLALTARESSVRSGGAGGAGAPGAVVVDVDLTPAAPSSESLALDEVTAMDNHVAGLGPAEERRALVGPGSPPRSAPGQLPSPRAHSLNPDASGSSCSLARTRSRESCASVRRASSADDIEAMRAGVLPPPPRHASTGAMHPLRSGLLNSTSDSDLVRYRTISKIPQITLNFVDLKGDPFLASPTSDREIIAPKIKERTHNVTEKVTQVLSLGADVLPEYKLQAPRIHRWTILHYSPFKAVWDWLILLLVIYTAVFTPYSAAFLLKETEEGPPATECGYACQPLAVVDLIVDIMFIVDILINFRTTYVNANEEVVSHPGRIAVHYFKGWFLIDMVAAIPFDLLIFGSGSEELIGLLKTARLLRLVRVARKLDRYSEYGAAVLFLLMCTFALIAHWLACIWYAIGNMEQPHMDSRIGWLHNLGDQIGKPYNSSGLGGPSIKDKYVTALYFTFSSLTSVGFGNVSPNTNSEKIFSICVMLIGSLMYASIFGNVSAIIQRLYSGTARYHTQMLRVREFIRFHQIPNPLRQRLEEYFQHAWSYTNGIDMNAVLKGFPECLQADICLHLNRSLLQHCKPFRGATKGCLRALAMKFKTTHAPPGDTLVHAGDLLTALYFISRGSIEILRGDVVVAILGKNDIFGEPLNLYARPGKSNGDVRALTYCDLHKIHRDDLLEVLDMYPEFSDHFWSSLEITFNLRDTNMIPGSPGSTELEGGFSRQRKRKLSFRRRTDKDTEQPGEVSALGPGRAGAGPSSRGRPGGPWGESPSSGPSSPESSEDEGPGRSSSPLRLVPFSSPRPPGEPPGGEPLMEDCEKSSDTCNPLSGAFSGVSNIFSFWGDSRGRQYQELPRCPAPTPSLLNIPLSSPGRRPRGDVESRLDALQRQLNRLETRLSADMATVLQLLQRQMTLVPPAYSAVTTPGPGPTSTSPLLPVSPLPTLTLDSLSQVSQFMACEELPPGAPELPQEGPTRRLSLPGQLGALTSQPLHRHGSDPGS
Assay: primary screen, population patch clamp on CHO cells stably expressing hERG; higher = less effect of the substance
Hit rate of the full screen: of about 310,000 compounds, about 14,000 (4.5%) showed an effect of 50% or more. The effect is printed as a negative number. Shown is part of a subset that was picked to be rich in strong results.
Response body: numeric value in %, unit text excluded.

Sample records with hERG current change (%, negative = inhibition) at 10uM:
[[record]]
compound = "COc1cc(OC)cc(-c2nnc(SCc3ccc(C(=O)O)cc3)o2)c1"
observed = -71.6

[[record]]
compound = "Clc1ccc(-c2nc(NCCN3CCOCC3)c3ccccc3n2)cc1"
observed = -15.6


hERG current change (%, negative = inhibition) at 10uM for "Clc1ccc(-c2nnc(NCc3ccccc3)c3ccccc23)cc1" ?
-13.3

Now give it for CC1CCCN(CCC(=O)Nc2ccc(F)c(F)c2)C1 (stereo not shown) too.
-30.1

Now give it for "O=C(O)c1ccc(CSc2nnc(-c3ccco3)o2)cc1" too.
2.07

Now give it for "Clc1ccc(-c2nnc(NCCN3CCCC3)c3ccccc23)cc1" too.
-71.3

Now give it for "COc1ccc(-c2nnc(SCc3ccc(C(=O)O)cc3)o2)cc1OC" too.
13.7

* * *

Biological target: human ether-à-go-go-related gene (hERG) potassium channel (human);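 further: peak tail current of the secondary pulse compared with the same well before compound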
Assay: primary screen, population patch clamp on CHO cells stably expressing hERG; higher = less effect of the substance
About 14,000 (4.5%) of roughly 310,000 compounds showed an effect of 50% or more. Effects have a minus sign here. For the sample, strong results were picked, then their nearest neighbours and some compounds at random.
Property: hERG current change (%, negative = inhibition) at 10uM; scope: individual compounds
Response body: numeric value in %, unit text excluded.

Sample records with hERG current change (%, negative = inhibition) at 10uM:
[[record]]
chemical_string = "Nc1nc2ccc([N+](=O)[O-])cc2[nH]1"
unit_of_measurement = "%"
observed = 20.6

[[record]]
chemical_string = "Cc1ccc(-c2nc3ccc([N+](=O)[O-])cc3[nH]2)cc1"
unit_of_measurement = "%"
observed = -3.49

[[record]]
chemical_string = "CC(C)(C)c1nc2ccc([N+](=O)[O-])cc2[nH]1"
unit_of_measurement = "%"
observed = -77.7

[[record]]
chemical_string = "O=[N+]([O-])c1cccc(-c2nc3ccc([N+](=O)[O-])cc3[nH]2)c1"
unit_of_measurement = "%"
observed = 8.34


Please look at the following compound next.
hERG current change (%, negative = inhibition) at 10uM for "CCCC[n+]1ccc(-c2nc3ccc([N+](=O)[O-])cc3[nH]2)cc1" ?
-59.5

* * *

Biological target: human ether-à-go-go-related gene (hERG) potassium channel (human, UniProt Q12809);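 further: peak tail current of the secondary pulse compared with the same well before compound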
Assay: primary screen, population patch clamp on CHO cells stably expressing hERG; higher = less effect of the substance
About 14,000 (4.5%) of roughly 310,000 compounds showed an effect of 50% or more. Effects have a minus sign here. The list comes from a sample in which strong results are over-represented; it also holds close analogues and randomly drawn compounds.
endpoint: hERG current change (%, negative = inhibition) at 10uM
Remember to follow the number with its unit.

Sample records with hERG current change (%, negative = inhibition) at 10uM:
[[record]]
molecule = "Cn1c(=O)[nH]c2ccc([N+](=O)[O-])nc21"
observed = "9.62%"

[[record]]
molecule = "Cc1cccc(NC(=O)c2cc3c(=O)n4ccccc4nc3s2)c1"
observed = "10.8%"

[[record]]
molecule = "CN(C)CCCN(C(=O)c1cccs1)c1nc2cc3c(cc2s1)OCO3.Cl"
observed = "-56.8%"

[[record]]
molecule = "Cc1cccc(NC(=O)c2c(C)nc3ccccn23)c1"
observed = "-0.935%"

[[record]]
molecule = "CN(C)CCCN(C(=O)c1ccc(Cl)s1)c1nc2cc3c(cc2s1)OCO3"
observed = "-69%"

[[record]]
molecule = "Cc1ccc2sc(N(CCCN(C)C)C(=O)c3ccc(Br)s3)nc2c1C.Cl"
observed = "-71.7%"


hERG current change (%, negative = inhibition) at 10uM for "Cc1ccc2sc(N(CCCN(C)C)C(=O)c3nc4ccccc4s3)nc2c1C.Cl" ?
3.59%

* * *

Molecular target: human ether-à-go-go-related gene (hERG) potassium channel (human);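 further: peak tail current of the secondary pulse compared with the same well before compound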
Assay: primary screen, population patch clamp on CHO cells stably expressing hERG; higher = less effect of the substance
Screen size: about 310,000 compounds; about 14,000 (4.5%) showed an effect of 50% or more. Effects have a minus sign here. Many of the other results were omitted from the sample, so strong results are more common in it than they were.
Give TRUE when the value for hERG current change (%, negative = inhibition) at 10uM is at least -50%. Give FALSE when it is less.

[[record]]
compound = "CC(=O)NC12CC3CC(C1)CC(C(=O)Nc1nc4ccc(F)cc4s1)(C3)C2"
category = "FALSE"

[[record]]
compound = "COc1nc2c(C)cccc2cc1-c1noc(-c2ccco2)n1"
category = "TRUE"

[[record]]
compound = "COc1ccc(Cl)cc1NC(=O)CSc1nnc(CN2CCOCC2)n1-c1ccc(Cl)cc1"
category = "TRUE"

[[record]]
compound = "CCN(CC)C(=O)CC(c1ccc2c(c1)OCO2)c1c(OC)cc(OC)c2c(-c3ccccc3)cc(=O)oc12 (stereo not shown)"
category = "TRUE"

[[record]]
compound = "COC(=O)c1ccc([C@@H]2C[C@H]3CN(Cc4cccnc4)C(=O)[C@]34CCCN24)cc1"
category = "TRUE"


Check if hERG current change (%, negative = inhibition) at 10uM >= -50% (inclusive). Item: "CCc1ccc(NC(=O)CSc2nc(=O)n(CCN(C)C)c3c2CCCC3)cc1"
TRUE

Now give it for "CCCCc1ccc(NC(=O)CSc2nc(=O)n(CCN(CC)CC)c3c2CCCC3)cc1" too.
FALSE

Now give it for "O=C1N(Cc2cccnc2)C[C@@H]2C[C@@H](c3ccc(-c4ccccc4)cc3)N3CCC[C@@]123" too.
FALSE

Now give it for "CCc1ccc(NC(=O)CSc2nc(=O)n(CCCN(C)C)c3c2CCC3)cc1" too.
TRUE

Now give it for CC1Cc2ccccc2N1C(=O)COC(=O)C1(c2ccccc2F)CCCC1 (stereo not shown) too.
TRUE

Now give it for "CCCCc1ccc(NC(=O)CSc2nc(=O)n(CCN(C)C)c3c2CCC3)cc1" too.
FALSE

* * *

Property: hERG current change (%, negative = inhibition) at 10uM; scope: individual compounds
Biological target: human ether-à-go-go-related gene (hERG) potassium channel (human);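 further: peak tail current of the secondary pulse compared with the same well before compound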
Assay: primary screen, population patch clamp on CHO cells stably expressing hERG; higher = less effect of the substance
About 14,000 (4.5%) of roughly 310,000 compounds showed an effect of 50% or more. Effects have a minus sign here. Shown is part of a subset that was picked to be rich in strong results.
Response body: numeric value in %, unit text excluded.

Sample records with hERG current change (%, negative = inhibition) at 10uM:
[[record]]
compound = "CC(C)Cc1nc2oc3c(=O)[nH]cnc3c2c2c1CCC2"
system = "human ether-à-go-go-related gene (hERG) potassium channel (human)"
observed = -7.29

[[record]]
compound = "Cc1cc(Br)c(S(=O)(=O)NCCN2CCOCC2)cc1C"
system = "human ether-à-go-go-related gene (hERG) potassium channel (human)"
observed = 7.8

[[record]]
compound = "CC(NC(=O)C(C(=O)c1cccc([N+](=O)[O-])c1)n1cc(Cl)ccc1=O)c1ccccc1 (centres unmarked)"
system = "human ether-à-go-go-related gene (hERG) potassium channel (human)"
observed = -15

[[record]]
compound = "CCCNC(=O)c1cc(Cl)c(NC(=O)C2=C(C)OCCS2)cc1OC"
system = "human ether-à-go-go-related gene (hERG) potassium channel (human)"
observed = -14.5

[[record]]
compound = "Cc1c(NS(=O)(=O)c2cccc(C(=O)Nc3ccccc3)c2)c(=O)n(-c2ccccc2)n1C"
system = "human ether-à-go-go-related gene (hERG) potassium channel (human)"
observed = -11


hERG current change (%, negative = inhibition) at 10uM for "CCN(CC)CCCNC(=O)c1cc(Cl)c(NC(=O)C2=C(C)OCCS2)cc1OC" ?
-61.5

Now give it for CCOC(=O)C1=C(O)C(=O)N(c2ccccc2)C1c1cccc([N+](=O)[O-])c1 (centres unmarked) too.
-26.7

Now give it for Fc1ccc(C(c2nnnn2C2CCCC2)N(Cc2ccco2)CC2CCCO2)cc1 (centres unmarked) too.
-28

Now give it for "CCN(CC)CCOc1ccc2nc(N(C)C)sc2c1.Cl" too.
11.1

Now give it for COc1ccc(C(CNS(=O)(=O)c2ccc(C)cc2)N2CCN(C)CC2)cc1 (centres unmarked) too.
-45.2

Now give it for OCCC1CN(Cc2cc(F)ccc2-n2cccn2)CCN1C1CCCC1 (centres unmarked) too.
-29

Now give it for "CCN(c1ccccc1)S(=O)(=O)c1ccc(Cl)c(NC(=O)COC(=O)c2ccc[nH]c2=O)c1" too.
3.13
